TESTED_ON: P2Y purinoceptor 1 (Homo sapiens)
Sequence (P47900 whole entry): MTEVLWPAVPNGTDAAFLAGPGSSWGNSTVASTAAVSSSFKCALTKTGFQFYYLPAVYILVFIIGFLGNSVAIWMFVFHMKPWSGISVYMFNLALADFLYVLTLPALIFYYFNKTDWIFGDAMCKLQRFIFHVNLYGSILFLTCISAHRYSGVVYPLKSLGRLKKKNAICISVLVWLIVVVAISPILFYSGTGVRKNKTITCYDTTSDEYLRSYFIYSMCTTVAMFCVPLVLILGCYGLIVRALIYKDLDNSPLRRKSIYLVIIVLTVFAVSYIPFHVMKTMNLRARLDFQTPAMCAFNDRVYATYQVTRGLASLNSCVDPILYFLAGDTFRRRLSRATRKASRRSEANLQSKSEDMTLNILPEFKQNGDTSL
ASSAY_METHOD_TEXT: Accumulation of inositol phosphate in 1321N1 astrocytoma cells expressing human P2Y1 purinoceptor
Examples of molecules with documented EC50 follow.
Could you give the number and then its unit, please?

# example entries with known answers
| MOLECULE | EC50 |
| --- | --- |
| Nc1nc(Cl)nc2c1ncn2[C@@H]1O[C@H](COP(=O)(O)OP(=O)(O)OP(=O)(O)O)[C@@H](O)[C@H]1O | 770 nM |
| Nc1nc(Cl)nc2c1ncn2C1C(O)C(O)[C@@]2(COP(=O)(O)OP(=O)(O)OP(=O)(O)O)C[C@@H]12 (some centres not stated) | 7 nM |
| Nc1ncnc2c1ncn2C1C(O)C(O)[C@@]2(COP(=O)(O)OP(=O)(O)CP(=O)(O)O)C[C@H]12 (some centres not stated) | 158 nM |

The observed EC50 for CNc1ncnc2c1ncn2C1C(O)C(O)[C@@]2(COP(=O)(O)OP(=O)(O)OP(=O)(O)O)C[C@@H]12 (some centres not stated) when tested with P2Y purinoceptor 1 (Homo sapiens) stands at 33 nM

The observed EC50 for CNc1nc(Cl)nc2c1ncn2C1C(O)C(O)[C@@]2(COP(=O)(O)OP(=O)(O)OP(=O)(O)O)C[C@@H]12 (some centres not stated) when tested with P2Y purinoceptor 1 (Homo sapiens) stands at 9 nM

The observed EC50 for CSc1nc(N)c2ncn([C@@H]3O[C@H](COP(=O)(O)OP(=O)(O)OP(=O)(O)O)[C@@H](O)[C@H]3O)c2n1 when tested with P2Y purinoceptor 1 (Homo sapiens) stands at 34 nM

The observed EC50 for CSc1nc(N)c2ncn([C@H]3[C@H](O)[C@H](O)[C@@]4(COP(=O)(O)OP(=O)(O)O)C[C@@H]34)c2n1 when tested with P2Y purinoceptor 1 (Homo sapiens) stands at 0.4 nM
